test system: ATP; assay: switch fluorescence ratio, 500 uM ATP over buffer (Cy3 cluster intensity, sum of 5 cycles each) (fold (ratio)); higher = stronger signal-on switching upon ATP binding; sequences stand for … in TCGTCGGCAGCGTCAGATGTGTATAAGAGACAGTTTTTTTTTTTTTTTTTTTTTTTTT…TC; conditions: aptamer strand: ATP DNA aptamer (quencher-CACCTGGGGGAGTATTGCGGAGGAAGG + anchor), 100 nM annealed; ATP concentration: 500 uM;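 further: ATP exposure 15 min at 22 °C before imaging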
Listing: switch fluorescence ratio of selected sequences
Kindly provide the number alone.

Consider the worked cases shown below.
sequence_data=GGCTACCAGT measurement_type="switch fluorescence ratio" reading=0.96
sequence_data=CTGAGATCTC measurement_type="switch fluorescence ratio" reading=1.02
sequence_data=ATTTAAGGTA measurement_type="switch fluorescence ratio" reading=1.01
sequence_data=TTTTACCACT measurement_type="switch fluorescence ratio" reading=1.04
sequence_data=ATACGCAGGG measurement_type="switch fluorescence ratio" reading=1.06
sequence_data=GAAAAATTAA measurement_type="switch fluorescence ratio" reading=0.993
sequence_data=TCTTTTGGAG measurement_type="switch fluorescence ratio" reading=0.996
sequence_data=GGGGTTGAAT measurement_type="switch fluorescence ratio" reading=1.01
sequence_data=TTTAAATCCT measurement_type="switch fluorescence ratio" reading=1.09
sequence_data=GGTGGGGTAA measurement_type="switch fluorescence ratio" reading=0.993

Next up:
Problem: Identify measured switch fluorescence ratio obtained with ATP for CTAGGGGAGA .
Solution: 1.02

###

tested on: ATP; assay: switch fluorescence ratio, 500 uM ATP over buffer (Cy3 cluster intensity, sum of 5 cycles each) (fold (ratio)); higher = stronger signal-on switching upon ATP binding; sequences stand for … in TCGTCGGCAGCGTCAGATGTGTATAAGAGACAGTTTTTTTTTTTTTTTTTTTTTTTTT…TC; details: aptamer strand: ATP DNA aptamer (quencher-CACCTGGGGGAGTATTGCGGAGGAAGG + anchor), 100 nM annealed; ATP concentration: 500 uM;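 further: ATP exposure 15 min at 22 °C before imaging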
Listing: switch fluorescence ratio of selected sequences
Kindly provide the number alone.

sequence_data=TCAAATTAGA reading=0.966

Problem: Quickly give me recorded switch fluorescence ratio for TAGCAATGTT
Solution: 1.64

Problem: Quickly give me recorded switch fluorescence ratio for CACCTTTATT
Solution: 1.02

Problem: Quickly give me recorded switch fluorescence ratio for GGGGCCGGCG
Solution: 1.08

Problem: Quickly give me recorded switch fluorescence ratio for GCGGCATGGT
Solution: 0.985

Problem: Quickly give me recorded switch fluorescence ratio for TCAGGGCATG
Solution: 1.04

Problem: Quickly give me recorded switch fluorescence ratio for TTGGTTACGG
Solution: 1.01

Problem: Quickly give me recorded switch fluorescence ratio for AAAATTTCGC
Solution: 1.01

Problem: Quickly give me recorded switch fluorescence ratio for AAAGAAAAAT
Solution: 1

Problem: Quickly give me recorded switch fluorescence ratio for AGCTTAGGGG
Solution: 1.07

Problem: Quickly give me recorded switch fluorescence ratio for AAGGTTATTA
Solution: 1

Problem: Quickly give me recorded switch fluorescence ratio for GGCTGCGCGG
Solution: 1

###

Listing: switch fluorescence ratio of selected sequences
tested on: ATP; assay: switch fluorescence ratio, 500 uM ATP over buffer (Cy3 cluster intensity, sum of 5 cycles each) (fold (ratio)); higher = stronger signal-on switching upon ATP binding; sequences stand for … in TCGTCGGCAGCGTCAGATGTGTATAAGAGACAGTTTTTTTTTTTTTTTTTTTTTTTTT…TC; details: aptamer strand: ATP DNA aptamer (quencher-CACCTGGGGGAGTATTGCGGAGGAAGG + anchor), 100 nM annealed; ATP concentration: 500 uM;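 further: ATP exposure 15 min at 22 °C before imaging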

Consider the worked cases shown below.
sequence_data=AAAACCGGAT reading=1.11
sequence_data=TGGTTGGGGA reading=0.994
sequence_data=GAGTTTAATT reading=0.999
sequence_data=ACTGTGGGGC reading=0.979
sequence_data=TTTTTTGCT reading=0.996
sequence_data=TGTTCTAGG reading=1.01
sequence_data=TTTGGGGCTA reading=1.05
sequence_data=TCATTTCGA reading=0.988

Problem: Quickly give me recorded switch fluorescence ratio for TTTAATAGGG
Solution: 0.995

Problem: Quickly give me recorded switch fluorescence ratio for TGTTTCTTTT
Solution: 1.01

Problem: Quickly give me recorded switch fluorescence ratio for ATCCAGGGGT
Solution: 1.06
